Test system: Saccharomyces cerevisiae;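 also: PSI is a weighted mean of sequencing reads over stability bins, variants kept only with over 10 reads, mCherry proximal and sfGFP distal, peptide attached via GGGS linker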
ASSAY: protein stability index of tFT-peptide fusion (C-terminal peptide) (PSI (0-1 scale)); higher = more stable (slower turnover)
CONDITION_DETAILS: genetic background: wild type; temperature: 30 C
Given measured protein stability index, output 1 if it is greater than or equal to 0.7 and -1 if not.

Known results for sequences:
FALERLWFMSVG | -1
CPPSPFPPPLPR | 1
EQNRINLNRSGL | 1

Q: Given WTLELSGWLRSE , state whether its protein stability index is at least 0.7.
Ans: 1

Q: Given GHDWRNPRLVED , state whether its protein stability index is at least 0.7.
Ans: -1

Q: Given VSLFETIPVLSR , state whether its protein stability index is at least 0.7.
Ans: -1
